Data credit: ChEMBL document CHEMBL1144257

# Tested on: SK-HEP1
# assay_summary: Inhibitory concentration against human SK-Hep-1 cells (hepatoma cell line)
# Assay type: functional, cell-based
readout_name: IC50 (nM)

| molecule | unit_string | numeric_value |
| --- | --- | --- |
| O=C(NCC(=O)N(CCO)C1CCCCCCCC1)c1cc2cc(Cl)ccc2[nH]1 | nM | 28000 |

[A] N#CCCN(C(=O)CNC(=O)c1cc2cc(Cl)ccc2[nH]1)C1CCCC1
[B] O=C(NCC(=O)N(CCO)Cc1ccccc1)c1cc2cc(Cl)ccc2[nH]1
I need your help: which of the pair A , B has higher IC50? Please indicate the selected item by its label.
B
